Hello, the source for this data is patent US7754689B2, in case you need it.

Assayed Target: T1, BMP-12 (UniProt Q7Z4P5 322-450, limits assumed)
T1 construct: also called BMP12/GDF7
T1 sequence (looked up): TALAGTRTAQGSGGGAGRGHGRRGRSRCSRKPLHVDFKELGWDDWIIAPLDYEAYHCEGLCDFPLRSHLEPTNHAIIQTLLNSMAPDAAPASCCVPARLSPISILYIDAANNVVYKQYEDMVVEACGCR
Assay Details: peptide resin, filter plate; load 4: 25 mM MES pH 6.0
No end group written: not given here.
Measure Name: 4M Gnd, 50 mM NaAc pH 4 Strip Conc (mg/ml)

(P) Ac-SDVGWNDWIVAPPGYHAFYSHGEK [BMP2 N-trun 1S peptide 751]
(Q) Ac-RDLGWQDWIIAPEGYAAFYSDGEK [BMP5 peptide 748]
Compare P and Q by numeric 4M Gnd, 50 mM NaAc pH 4 Strip Conc and name the larger one. Answer by quoting the chosen item's label. Q

(a) Ac-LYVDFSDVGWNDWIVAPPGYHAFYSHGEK [BMP2 Full peptide 747]
(b) Ac-VAPPGYHAFYSHGEK [BMP2 N-trunc_2 peptide 745]
Just tell me: smaller 4M Gnd, 50 mM NaAc pH 4 Strip Conc value, a or b ? Answer by quoting the chosen item's label. b
